target.or.test.system: human ENT1 (Homo sapiens)
Sequence (Q99808 1-456): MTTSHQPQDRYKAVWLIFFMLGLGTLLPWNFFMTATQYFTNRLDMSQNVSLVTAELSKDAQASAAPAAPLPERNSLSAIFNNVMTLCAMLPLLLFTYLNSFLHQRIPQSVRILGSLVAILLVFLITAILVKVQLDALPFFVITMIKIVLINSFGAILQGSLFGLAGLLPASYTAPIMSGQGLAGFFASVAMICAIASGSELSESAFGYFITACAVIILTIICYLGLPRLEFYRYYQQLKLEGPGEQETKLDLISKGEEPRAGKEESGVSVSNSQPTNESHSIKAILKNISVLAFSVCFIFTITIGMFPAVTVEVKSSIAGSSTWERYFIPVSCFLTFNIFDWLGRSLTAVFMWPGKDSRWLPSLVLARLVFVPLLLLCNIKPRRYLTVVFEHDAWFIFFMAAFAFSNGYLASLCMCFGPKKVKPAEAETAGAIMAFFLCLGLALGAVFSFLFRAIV
assay.info: ENT1 binding assay (competition with Sahenta-DY647 on JAR cells)
Parameters: JAR cells expressing ENT1 were bought from ATCC; host or cells: JAR cells
cond: binned IC50
pIC50: −log10 of the molar value.
Entries and their measured pIC50 follow.

COCCN(CCOC)c1nc(N2CCN(C)C(=O)C2)c2nc(N(CCO)CCOC)nc(N3CCC(OC)CC3)c2n1 [Compound 276]	6.30 to 7.00

Entry under test: COCCN(CCOC)c1nc(N2CCCN(C(C)=O)CC2)c2nc(N(CCOC)CCOC)nc(N3CCC(OC)CC3)c2n1 [Compound 98] . Its pIC50 was 6.30 to 7.00

Entry under test: COCCN(CCOC)c1nc(N2CCC(OC)CC2)c2nc(N(CCO)Cc3cc(OC)c(OC)c(OC)c3)nc(N3CCC(OC)CC3)c2n1 [Compound 186] . Its pIC50 was > 7.00
